Please find below Ki measurements for Plasminogen (Homo sapiens), combined from several publications.

smiles_string=COC(=O)c1ccc(CS(=O)(=O)N[C@H](CO)C(=O)N[C@@H](CO)C(=O)NCc2ccc(C(=N)N)cc2)cc1 endpoint=Ki assay_value="0.96 µM"
smiles_string=NCc1ccc(Cl)cc1CNC(=O)[C@@H]1CCCN1C(=O)[C@@H](CCC(=O)N1CCOCC1)NC(=O)OCc1ccccc1 endpoint=Ki assay_value="> 20 µM"
smiles_string=N=C(N)c1ccc(CNC(=O)[C@H](COCc2ccccc2)NC(=O)[C@@H](CO)NS(=O)(=O)Cc2ccccc2)cc1 endpoint=Ki assay_value="0.27 µM"
smiles_string=NCc1ccc(Cl)cc1CNC(=O)[C@@H]1CCN1C(=O)[C@@H](CC(=O)N1CCCCC1)NS(=O)(=O)Cc1ccccc1 endpoint=Ki assay_value="> 20 µM"
smiles_string=N=C(N)c1ccc(CNC(=O)CNC(=O)[C@@H](CO)NS(=O)(=O)Cc2ccc(CC(=O)O)cc2)cc1 endpoint=Ki assay_value="27 µM"
smiles_string=CC(=O)N1CCN(C(=O)C[C@@H](NS(=O)(=O)Cc2ccccc2)C(=O)N2CCC[C@H]2C(=O)NCc2cc(Cl)ccc2CN)CC1 endpoint=Ki assay_value="9 µM"
smiles_string=NCc1ccc(Cl)cc1CNC(=O)[C@@H]1CCCN1C(=O)[C@@H](CC(=O)N1CC[C@H](O)C1)NS(=O)(=O)Cc1ccccc1 endpoint=Ki assay_value="> 10 µM"
smiles_string=NCc1ccc(Cl)cc1CNC(=O)[C@@H]1CCCN1C(=O)[C@@H](CC(=O)N1CCCC1)NS(=O)(=O)Cc1ccccc1 endpoint=Ki assay_value="> 20 µM"
smiles_string=CN(C(=O)CC[C@@H](NS(=O)(=O)Cc1ccccc1)C(=O)N1CCC[C@H]1C(=O)NCc1cc(Cl)ccc1CN)C1CCNCC1 endpoint=Ki assay_value="> 10 µM"
smiles_string=NCc1ccc(Cl)cc1CNC(=O)[C@@H]1CCCCN1C(=O)[C@@H](CC(=O)N1CCOCC1)NS(=O)(=O)Cc1ccccc1 endpoint=Ki assay_value="> 50 µM"

Problem: Requested read-out Ki, target or system Plasminogen (Homo sapiens), entry N=C(N)c1ccc(CNC(=O)CNC(=O)[C@@H](CO)NS(=O)(=O)Cc2ccccc2C(=O)O)cc1
Solution: 220 µM

Problem: Requested read-out Ki, target or system Plasminogen (Homo sapiens), entry COc1ccc(S(=O)(=O)NCC(=O)N2CCC[C@H]2C(=O)NCc2ccc(C(=N)N)cc2)cc1
Solution: 5.8 µM

Problem: Requested read-out Ki, target or system Plasminogen (Homo sapiens), entry NCc1ccc(Cl)cc1CNC(=O)[C@@H]1C[C@H](N)CN1C(=O)[C@@H](CC(=O)N1CCNCC1)NS(=O)(=O)Cc1ccccc1
Solution: > 3 µM

====

Please find below Ki measurements for Plasminogen (Homo sapiens, UniProt P00747), combined from several publications.

As a guide, the following entries are already answered.
compound=NCc1ccc(Cl)cc1CNC(=O)[C@@H]1CCCCN1C(=O)[C@@H](CCC(=O)N1CCOCC1)NS(=O)(=O)Cc1ccccc1 assayed_system="Plasminogen (Homo sapiens, UniProt P00747)" assay_value="> 5 µM"
compound=NCc1ccc(Cl)cc1CNC(=O)[C@@H]1CCCN1C(=O)[C@@H](CC(=O)N1CC[C@H](N)C1)NS(=O)(=O)Cc1ccccc1 assayed_system="Plasminogen (Homo sapiens, UniProt P00747)" assay_value="> 25 µM"
compound=CC(C)(C)OC(=O)NCC(=O)NCc1ccc(NC(=N)N)cc1 assayed_system="Plasminogen (Homo sapiens, UniProt P00747)" assay_value="> 1000 µM"

Problem: Dear colleague, I am looking for the recorded Ki of the following compound: NCc1ccc(Cl)cc1CNC(=O)[C@@H]1CCCN1C(=O)[C@@H](CC(=O)N1CCSCC1)NS(=O)(=O)Cc1ccccc1
Solution: 6 µM

Problem: Dear colleague, I am looking for the recorded Ki of the following compound: NCc1ccc(Cl)cc1CNC(=O)[C@@H]1C[C@H](N)CN1C(=O)[C@@H](CCC(=O)N1CCOCC1)NS(=O)(=O)Cc1ccccc1
Solution: > 15 µM

Problem: Dear colleague, I am looking for the recorded Ki of the following compound: CC1CCN(C(=O)C(Cc2cccc(N)c2)NS(=O)(=O)c2ccc3ccccc3c2)CC1 (racemic)
Solution: > 1000 µM

Problem: Dear colleague, I am looking for the recorded Ki of the following compound: N=C(N)Nc1ccc(CNC(=O)OC23C[C@H]4C[C@@H](C2)C[C@@H](C3)C4)cc1
Solution: > 1000 µM

Problem: Dear colleague, I am looking for the recorded Ki of the following compound: NCc1ccc(Cl)cc1CNC(=O)CC[C@@H](NS(=O)(=O)Cc1ccccc1)C(=O)N1CCC[C@H]1C(=O)NCc1cc(Cl)ccc1CN
Solution: > 5 µM

Problem: Dear colleague, I am looking for the recorded Ki of the following compound: COC(=O)c1cccc(CS(=O)(=O)N[C@H](CO)C(=O)NCC(=O)NCc2ccc(C(=N)N)cc2)c1
Solution: 28 µM

Problem: Dear colleague, I am looking for the recorded Ki of the following compound: COC(=O)c1ccc(CS(=O)(=O)N[C@H](CO)C(=O)NCC(=O)NCc2ccc(C(=N)N)cc2)cc1
Solution: 17 µM

Problem: Dear colleague, I am looking for the recorded Ki of the following compound: COC(=O)C1CCCCN1C(=O)C(Cc1cccc(C(=N)N)c1)NS(=O)(=O)c1ccc2ccccc2c1 (racemic)
Solution: 10.5 µM
